Test system: TLK1;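 further: KINOMEscan kinase panel screen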
TEST PARAMETERS: concentration: 1 μM, replicates: in singlicate; n = 1
QUANTITY KIND: %Inh (%)
Numbers only, in %.

// below: answered compounds
Nc1ncnc2c1ncn2-c1ccc(Cl)cc1 | 0
COc1ccc(CNC(=O)NC2CCN(c3ccnc(Nc4ccc(F)cc4)n3)C2)cc1 (stereo not shown) | 26
Cc1cccc(-c2nc(Nc3ccc4c(cnn4C)c3)c3ccccc3n2)n1 | 0

Could I get %Inh for every one of these entries?
1. O=C(NCCNc1ccnc(Nc2ccc(F)cc2)n1)Nc1ccc2c(c1)OCO2
2. C[C@@H]1CC[C@H](C(=O)NC2CCCCC2)CN1c1cc(-c2ccc3c(N)n[nH]c3c2)nc(N)n1
3. COc1cc2nccc(Nc3ccc(OCc4ccc(NC(C)=O)cc4)cc3)c2cc1OC.Cl
4. CCn1c(-c2ccoc2)nc2cnccc21
5. COc1cc2ncn(-c3cc(OCCCc4ccccc4)c(C(N)=O)s3)c2cc1OC
6. O=C(Nc1n[nH]c2nc(-c3ccccc3)c(Cl)cc12)C1CC1
7. O=C(NCc1cccs1)c1cc(C(=O)c2c(Cl)cccc2Cl)c[nH]1

Solution:
1. 22
2. 5
3. 0
4. 0
5. 0
6. 0
7. 0

Could I get %Inh for every one of these entries?
1. COc1cc(Nc2nccc(N3CCC(NC(=O)C(C)c4ccc(Cl)cc4)C3)n2)cc(OC)c1OC (stereo not shown)
2. Nc1n[nH]c2ncc(-c3ccccc3)cc12
3. CCc1ccc(-c2ccc3c(c2)-c2nn(C)cc2S(=O)(=O)N3C)cc1
4. COc1cc(Nc2nccc(N3CCC(NC(=O)C4COc5ccccc5O4)C3)n2)cc(OC)c1OC (stereo not shown)
5. COc1cc(Nc2ccnc3ccc(C(F)(F)F)cc23)cc(OC)c1OC

Solution:
1. 0
2. 0
3. 35
4. 8
5. 6
